targetOfAssay: human TLR9 (Homo sapiens, UniProt Q9NR96)
Sequence (Q9NR96 26-1032): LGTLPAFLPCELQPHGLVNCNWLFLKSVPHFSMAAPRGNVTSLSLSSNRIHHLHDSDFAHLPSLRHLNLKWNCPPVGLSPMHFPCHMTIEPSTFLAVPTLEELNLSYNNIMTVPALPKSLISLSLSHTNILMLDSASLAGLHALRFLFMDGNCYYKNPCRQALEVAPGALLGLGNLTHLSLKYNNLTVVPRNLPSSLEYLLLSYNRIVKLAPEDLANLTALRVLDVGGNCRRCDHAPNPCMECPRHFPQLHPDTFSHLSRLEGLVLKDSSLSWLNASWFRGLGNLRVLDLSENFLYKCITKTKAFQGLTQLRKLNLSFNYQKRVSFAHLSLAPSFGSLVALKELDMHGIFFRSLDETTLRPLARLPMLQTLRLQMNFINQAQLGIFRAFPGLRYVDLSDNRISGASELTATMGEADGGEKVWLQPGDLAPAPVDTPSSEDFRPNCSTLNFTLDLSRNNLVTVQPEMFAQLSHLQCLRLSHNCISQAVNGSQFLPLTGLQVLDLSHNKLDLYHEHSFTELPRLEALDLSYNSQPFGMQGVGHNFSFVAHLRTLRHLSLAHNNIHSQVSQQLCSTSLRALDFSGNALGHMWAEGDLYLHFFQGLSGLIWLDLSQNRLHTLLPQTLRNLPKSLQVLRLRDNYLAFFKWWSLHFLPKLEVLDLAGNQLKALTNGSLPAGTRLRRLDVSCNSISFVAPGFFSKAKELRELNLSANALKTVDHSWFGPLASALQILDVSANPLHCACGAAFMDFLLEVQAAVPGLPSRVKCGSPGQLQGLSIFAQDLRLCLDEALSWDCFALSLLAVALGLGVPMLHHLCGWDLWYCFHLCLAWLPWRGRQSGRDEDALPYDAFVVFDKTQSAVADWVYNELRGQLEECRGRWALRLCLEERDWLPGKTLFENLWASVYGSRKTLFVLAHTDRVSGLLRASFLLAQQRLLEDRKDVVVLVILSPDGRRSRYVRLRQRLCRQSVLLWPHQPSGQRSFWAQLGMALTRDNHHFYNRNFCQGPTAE
procedureSummary: TLR9 inhibition reporter assay (HEK-Blue cells, SEAP reporter, ODN2006 stimulation)
statedConditions: HEK-Blue cells overexpressing human TLR9, SEAP reporter, ODN2006 5 nM
Let's look at some compounds and their measured pIC50.
Remember, pIC50 is on a log scale: it is -log10 of the molar concentration.

Enquiry: Find the recorded pIC50 belonging to `COc1cc(-c2[nH]c3sc(C4CCN(C(C)C)CC4)nc3c2C(C)C)cn2ncnc12` and report it.
Return: 5.88

New cases:
Enquiry: Find the recorded pIC50 belonging to `CCCN1CCC(c2nc3c(C(C)C)c(-c4cn5ncnc5c(C)c4C)[nH]c3s2)CC1` and report it.
Return: 5.06

Enquiry: Find the recorded pIC50 belonging to CNC1CCC(c2nc3c(C(C)C)c(-c4cc(OC)c5ncnn5c4)[nH]c3s2)CC1 (single isomer, unassigned) [Example 74] and report it.
Return: 5.72

Enquiry: Find the recorded pIC50 belonging to `CNCC(=O)N1CCN(c2nc3c(C(C)C)c(-c4cn5ncnc5c(C)c4C)[nH]c3s2)[C@H](C)C1` and report it.
Return: 4.75

Enquiry: Find the recorded pIC50 belonging to `Cc1c(-c2[nH]c3sc(N4CCC(NC(C)C)CC4)nc3c2C(C)C)cn2ncnc2c1C` and report it.
Return: 5.05

Enquiry: Find the recorded pIC50 belonging to Cc1c(-c2[nH]c3sc(C4CCC(N5CCOCC5)CC4)nc3c2C(C)C)cn2ncnc2c1C (single isomer, unassigned) [Example 213] and report it.
Return: 4.59

Enquiry: Find the recorded pIC50 belonging to `COc1cc(-c2c(C(C)C)c3nc(C4CCN(CC(F)(F)F)CC4)sc3n2CC(F)(F)F)cn2ncnc12` and report it.
Return: 5.38

Enquiry: Find the recorded pIC50 belonging to CCc1c(-c2cc(OC)c3ncnn3c2)[nH]c2sc(C3CCC(N4CC5(COC5)C4)CC3)nc12 (single isomer, unassigned) [Example 270] and report it.
Return: 5.46

Enquiry: Find the recorded pIC50 belonging to COc1cc(-c2[nH]c3sc(C4CCC(NC5COC5)CC4)nc3c2C(C)C)cn2ncnc12 (single isomer, unassigned) [Example 65] and report it.
Return: 5.00

Enquiry: Find the recorded pIC50 belonging to `Cc1c(-c2[nH]c3sc(C(=O)N4CCC(N(C)C)CC4)nc3c2C(C)C)cn2ncnc2c1C` and report it.
Return: 5.20

Enquiry: Find the recorded pIC50 belonging to COC(C)(C)CNC1CCC(c2nc3c(C(C)C)c(-c4cn5ncnc5c(C)c4C)[nH]c3s2)CC1 (single isomer, unassigned) [Example 187] and report it.
Return: 5.06

Enquiry: Find the recorded pIC50 belonging to Cc1cc(-c2[nH]c3sc(C4CCC(NC56CC(C5)C6)CC4)nc3c2C(C)C)cn2ncnc12 (single isomer, unassigned) [Example 138] and report it.
Return: 4.83

Enquiry: Find the recorded pIC50 belonging to `CC(C)c1c(-c2cn(C)c3ncccc23)[nH]c2sc(C3CCN(C(C)C)CC3)nc12` and report it.
Return: 4.60

Enquiry: Find the recorded pIC50 belonging to Cc1c(-c2[nH]c3sc(C4CCC(NC5CCOCC5)CC4)nc3c2C(C)C)cn2ncnc2c1C (single isomer, unassigned) [Example 200] and report it.
Return: 4.99

Enquiry: Find the recorded pIC50 belonging to Cc1cc2ncnn2cc1-c1[nH]c2sc(C3CCC(NC4CCOCC4)CC3)nc2c1C(C)C (single isomer, unassigned) [Example 161] and report it.
Return: 4.77
